What cAMP EC50 (1.0% HSA) was measured for each of the following?
- targetDesc: human GLP-1 receptor (human, UniProt P43220 24-463)
- methodSummary: cell-based or functional assay
*1 amine or outer side, *2 acyl side, *3 side chain or, on linkers, in order; H or OH if unused. Where no end group is shown, it is not given here. Side-chain parts run from the residue outwards. [ ]: non-standard residue; d: D form. The star is where a group is joined. Decanoyl(10-(4-HOOC-PhO)) = O=C(O)c1ccc(OCCCCCCCCCC(=O)*)cc1; αMePhe(2-F) = C[C@](N)(Cc1ccccc1F)C(=O)O; γGlu = O=C(O)[C@H](CCC(=O)[*:2])N[*:1]; αMeY = C[C@](N)(Cc1ccc(O)cc1)C(=O)O; αMeL = CC(C)C[C@](C)(N)C(=O)O; Orn = NCCC[C@H](N)C(=O)O; AEEA = NCCOCCOCC(=O)O; Aib = CC(C)(N)C(=O)O
One number for each entry, in nM.

Past entries and their recorded results:
binder="YXEGTXTSDXXIXLDXKAQXXFIXXLIEGGPSSGAPPPSK (Y-Aib-EGT-αMeF(2F)-TSD-4Pal-Aib-I-αMeL-LD-Orn-K((2-[2-(2-Amino-ethoxy)-ethoxy]-acetyl)2-(γ-Glu)-CO-(CH2)10-CH3)AQ-Aib-4Pal-FI-(D-Glu)-αMeY-LIEGGPSSGAPPPSK((2-[2-(2-Amino-ethoxy)-ethoxyl-acetyl)2-(γ-Glu)-CO-(CH2)10-CH3)-NH2) [Example 420]" readoutkind="cAMP EC50 (1.0% HSA)" recordedvalue=10
binder="YXEGTXTSDKXIXLDXKAQXEFIXXLIEGGPSSGAPPPS (Y-Aib-EGT-αMeF(2F)-TSDK((2-[2-(2-Amino-ethoxy)-ethoxy]-acetyl)3-(γ-Glu)-CO-(CH2)10-CH3)-Aib-I-αMeL-LD-Orn-K((2-[2-(2-Amino-ethoxy)-ethoxy]-acetyl)3-(γ-Glu)-CO-(CH2)10-CH3)AQ-Aib-EFI-(D-Glu)-αMeY-LIEGGPSSGAPPPS-NH2) [Example 421]" readoutkind="cAMP EC50 (1.0% HSA)" recordedvalue=2.01
binder="Y[Aib]EGT[αMePhe(2-F)]TSDV[Aib]I[αMeL]LD[Orn]QAQ[Aib][Orn]FIK([AEEA-AEEA-γGlu-Decanoyl(10-(4-HOOC-PhO))])[αMeY]LIK([AEEA-AEEA-γGlu-Decanoyl(10-(4-HOOC-PhO))])GGPSSGAPPPS-NH2 [Example 447]" readoutkind="cAMP EC50 (1.0% HSA)" recordedvalue=7.85
binder="YXEGTXTSDYXIXLDXKAQXEFIXXLIKGGPSSGAPPPS (Y-Aib-EGT-αMeF(2F)-TSDY-Aib-I-αMeL-LD-Orn-K((2-[2-(2-Amino-ethoxy)-ethoxy]-acetyl)2-CO-(CH2)12-CO2H)AQ-Aib-EFI-(D-Glu)-αMeY-LIK((2-[2-(2-Amino-ethoxy)-ethoxy]-acetyl)2-CO-(CH2)12-CO2H)GGPSSGAPPPS-NH2) [Example 388]" readoutkind="cAMP EC50 (1.0% HSA)" recordedvalue=6.31

Problem: Look up cAMP EC50 (1.0% HSA): YXEGTXTSDYXIXLDXIAQXKFIXXLIEGGPSSGAPPPSK (Y-Aib-EGT-αMeF(2F)-TSDY-Aib-I-αMeL-LD-Orn-IAQ-Aib-K((2-[2-(2-Amino-ethoxy)-ethoxy]-acetyl)-(γ-Glu)-(10-(4-carboxyphenoxy)decanoyl))FI-(D-Glu)-αMeY-LIEGGPSSGAPPPSK((2-[2-(2-Amino-ethoxy)-ethoxy]-acetyl)-(γ-Glu)-(10-(4-carboxyphenoxy)decanoyl))-NH2) [Example 377]
Result: 178
